SUBJECT OF TEST: Melanocortin receptor 4 (Homo sapiens)
ASSAY: MC4R antagonists in CRE-luciferase reporter cells, dose response, counter-screen for LGR2 antagonist project, cell-based, HEK293, luminescence, dry powder (AID 743505)
EXPERIMENTAL PARAMETERS: antagonist mode, at 35 µM (top of the series)
The source made the active and inactive calls.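 The calls were made as follows: active = dose curve with falling signal and an AC50 no higher than twice the top valid tested dose; inconclusive = flat curve with 30 to 70% inhibition, or a poor fit; inactive = rising signal, flat weak curve, or AC50 over that limit.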
QUANTITY MEASURED: activity change, negative = inhibition

MOLECULE	QUANTITY MEASURED	OBSERVED RESULT
C[C@H](CO)N1C[C@H](C)[C@@H](CN(C)C(=O)Nc2cccc3ccccc23)OCCCC[C@H](C)Oc2ccc(NC(=O)C3CCCCC3)cc2C1=O	activity change, negative = inhibition	inactive
C[C@H](CO)N1C[C@H](C)[C@H](CN(C)C(=O)Nc2ccccc2F)OCCCC[C@H](C)Oc2ccc(NC(=O)C3CCCCC3)cc2C1=O	activity change, negative = inhibition	inactive
C[C@@H]1CN([C@H](C)CO)C(=O)c2cc(NC(=O)C3CCCCC3)ccc2O[C@@H](C)CCCCO[C@H]1CN(C)C(=O)Nc1cccc2ccccc12	activity change, negative = inhibition	inactive
